# MEASURED TARGET: ELAVL1/HuR (rHuR) (human, UniProt Q15717 1-326)
# Sequence (Q15717 whole entry): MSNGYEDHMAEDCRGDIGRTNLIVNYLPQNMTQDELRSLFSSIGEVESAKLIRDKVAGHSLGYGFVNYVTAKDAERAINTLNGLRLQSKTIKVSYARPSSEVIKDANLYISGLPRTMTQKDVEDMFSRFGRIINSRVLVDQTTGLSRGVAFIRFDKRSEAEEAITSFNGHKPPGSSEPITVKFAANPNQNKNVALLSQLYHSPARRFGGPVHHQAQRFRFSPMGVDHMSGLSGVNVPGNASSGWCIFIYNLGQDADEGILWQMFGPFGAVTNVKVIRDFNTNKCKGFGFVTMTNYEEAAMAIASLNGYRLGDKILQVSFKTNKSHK
# PROCEDURE SUMMARY: AlphaScreen saturation binding; RNA titrated against 1 nM HuR; R2 0.97; Methods print 0.087±0.021 without unit; 25 mM HEPES pH 7.4, 100 mM NaCl, 0.1% BSA, room temperature, 30 min then 90 min with donor beads
# TEST CONTEXT: protein: recombinant; tags: C-terminal Myc-His (vector section) or MYC/DDK (assay section, TP301562); label: biotin (BITEG); single strand
EXPERIMENTAL READOUT: pKd
Conceptually, pKd converts a concentration in mol/L into minus its log10.

Exercise: Query: pKd; subject: AUUAUUUAUUAUUUAUUUAUUAUUUA (ssRNA) [TNFalpha ARE probe]
Key: 8.42
